System: SREBP-2 transcriptional activity (SREBP2 cleavage) in HepG2_LSSprom cells
Assay: Luciferase reporter driven by a SREBP-2 specific promoter in HepG2_LSSprom cells
Format: cell-based
Conditions: 24 h, 24 h treatment, HepG2_LSSprom cells; read-out: SREBP2 Cleavage (IC50 μM) 24 h
Assign IC50 to each entry below.
Answers are plain numbers, in µM.

Check out these entries, answers already filled in.
- Compound: "CC(C)(C)c1cc(-c2csc(-c3ccc(C(=O)N4CCCC(C(=O)O)C4)cc3Cl)c2)ccn1 (stereo not drawn)"
  Parameter: "IC50"
  Measured Value: 0.72
- Compound: "CC(C)(C)c1cc(-c2cc(-c3ccc(C(=O)Nc4cccnc4)cc3Cl)cs2)ccn1"
  Parameter: "IC50"
  Measured Value: 1.4
- Compound: "CC(C)(C)c1cc(-c2csc(-c3ccc(C(=O)N4CCC(C(=O)O)CC4)cc3Cl)c2)ccn1"
  Parameter: "IC50"
  Measured Value: 2.8
- Compound: "CC(=O)N1CCN(C(=O)c2ccc(-c3csc(-c4ccnc(C(C)(C)C)c4)c3)c(Cl)c2)CC1"
  Parameter: "IC50"
  Measured Value: 1.4
- Compound: "CCOC(=O)NC1CCN(C(=O)c2ccc(-c3csc(-c4ccnc(C(C)(C)C)c4)c3)c(Cl)c2)CC1"
  Parameter: "IC50"
  Measured Value: 2.1
- Compound: "CC(C)N(C(=O)c1ccc(-c2csc(-c3ccnc(C(C)(C)C)c3)c2)c(Cl)c1)C(C)C"
  Parameter: "IC50"
  Measured Value: 0.21

// batch mode: one IC50 value per listed entry
1. CC(C)(C)c1cc(-c2cc(-c3ccc(C(=O)N4CCC[C@@H](NCc5ccc(Cl)cc5)C4)cc3Cl)cs2)ccn1 [Compound 80a]
2. CC(C)(C)c1cc(-c2cc(-c3ccc(C(=O)N4CCCC(NCc5cccc(Cl)c5)C4)cc3Cl)cs2)ccn1 (stereo not drawn)
3. CC1(N)CCCN(C(=O)c2ccc(-c3cc(-c4ccnc(C(C)(C)C)c4)cs3)c(Cl)c2)C1 (stereo not drawn)

1: 0.095; 2: 0.14; 3: 0.42

State recorded IC50 for all listed compounds.
1. CC(C)(C)OC(=O)NC1CCN(C(=O)c2ccc(-c3csc(-c4ccnc(C(C)(C)C)c4)c3)c(Cl)c2)C1 (stereo not drawn)
2. CC(C)(C)c1cc(-c2cc(-c3ccc(C(=O)N4CCC(F)(F)C4)cc3Cl)cs2)ccn1
3. CC(C)(C)C(=O)NC1CCCN(C(=O)c2ccc(-c3csc(-c4ccnc(C(C)(C)C)c4)c3)c(Cl)c2)C1 (stereo not drawn)

[0.37, 0.5, 0.36]

---

Tested on: SREBP-2 transcriptional activity (SREBP2 cleavage) in HepG2_LSSprom cells
Assay: Luciferase reporter driven by a SREBP-2 specific promoter in HepG2_LSSprom cells
Format: cell-based
Details: 24 h, 24 h treatment, HepG2_LSSprom cells; read-out: SREBP2 Cleavage (IC50 μM) 24 h
Kindly apply the following: TRUE if IC50 is less than 0.8 µM, FALSE in every other case.

Consider the following illustrative entries.
- Molecule: "CC(C)(C)c1cc(-c2csc(-c3ccc(C(=O)N4CCCC(N5CCNC5=O)C4)cc3Cl)c2)ccn1 (stereo not shown)"
  Assigned Label: "TRUE"
- Molecule: "CC(C)(C)OC(=O)NC1CCCN(C(=O)c2ccc(-c3csc(-c4ccnc(N5CCOCC5)c4)c3)c(Cl)c2)C1 (stereo not shown)"
  Assigned Label: "TRUE"
- Molecule: "CC(C)(C)c1cc(-c2cc(-c3ccc(C(=O)N4CCCC(N5CCCS5(=O)=O)C4)cc3Cl)cs2)ccn1 (racemic)"
  Assigned Label: "TRUE"
- Molecule: "CC(C)(C)c1cc(-c2cc(-c3ccc(C(=O)N4CCC[C@H](N)C4)cc3Cl)cs2)ccn1 [Compound 21b]"
  Assigned Label: "FALSE"

Check if IC50 falls below 0.8 µM for CC(C)(C)c1cc(-c2cc(-c3ccc(C(=O)N4CCC[C@H](O)C4)cc3Cl)cs2)ccn1 [Compound 48b] .
TRUE

Does the reported IC50 of the following molecule sit strictly below 0.8 µM? CC(C)N1CCc2cc(-c3csc(-c4ccnc(C(C)(C)C)c4)c3)ccc2C1=O
FALSE

---

Experiment: Cytotoxicity assay (LDH release) in HepG2_LSSprom cells
Format: cell-based
Conditions: human, HepG2 LSSprom cells, 6 h treatment, LDH release
Parameter: IC50 at 6 h

See these solved cases before continuing.
- Compound: "CC(C)(C)c1cc(-c2cc(-c3ccc(C(=O)N4CCC(F)(F)C4)cc3Cl)cs2)ccn1 [Compound 12]"
  Measured Value: "> 10 µM"
- Compound: "CC(C)(C)c1cc(-c2cc(-c3ccc(C(=O)N4CCC(F)(F)CC4)cc3Cl)cs2)ccn1 [Compound 13]"
  Measured Value: "> 10 µM"

Next compound, please.
IC50 at 6 h measured on CC(C)(C)c1cc(-c2cc(-c3ccc(C(=O)N4CCCCC4)cc3Cl)cs2)ccn1 [Compound 11] = > 10 µM

---

Assay: Cytotoxicity assay (LDH release) in HepG2_LSSprom cells
Assay type: cell-based
Settings: human, HepG2 LSSprom cells, 24 h treatment, LDH release
Parameter: IC50 at 24 h

// known answers, use as guide
- Molecule Smiles: "CC(C)(C)c1cc(-c2cc(-c3ccc(C(=O)N4CCNC(=O)C4)cc3Cl)cs2)ccn1"
  Parameter: "IC50 at 24 h"
  Measured Value: "> 3 µM"
- Molecule Smiles: "CC(C)(C)OC(=O)N1CCN(C(=O)c2ccc(-c3csc(-c4ccnc(C(C)(C)C)c4)c3)c(Cl)c2)CC1"
  Parameter: "IC50 at 24 h"
  Measured Value: "> 10 µM"
- Molecule Smiles: "CC(C)(C)c1cc(-c2csc(-c3ccc(C(=O)N(CCC(=O)O)c4ccc(F)cc4)cc3Cl)c2)ccn1"
  Parameter: "IC50 at 24 h"
  Measured Value: "> 10 µM"

// IC50 at 24 h lookup, molecule = CC(C)(C)c1cc(-c2cc(-c3ccc(C(=O)N4CCOCC4)cc3Cl)cs2)ccn1 , result: > 3 µM

---

Tested on: SREBP-2 transcriptional activity (SREBP2 cleavage) in HepG2_LSSprom cells
Experiment: Luciferase reporter driven by a SREBP-2 specific promoter in HepG2_LSSprom cells
Assay type: cell-based
Conditions: 24 h, 24 h treatment, HepG2_LSSprom cells; read-out: SREBP2 Cleavage (IC50 μM) 24 h
Parameter: IC50 (µM)
Answers are plain numbers, in µM.

Observe how each entry below is paired with its result.
- Compound: "CC(C)(C)c1cc(-c2csc(-c3ccc(C(=O)N4CCC(O)CC4)cc3Cl)c2)ccn1 [Compound 86]"
  Parameter: "IC50"
  Measured Value: 0.06
- Compound: "CC(C)(C)c1cc(-c2csc(-c3ccc(C(=O)N4CC[C@@H](N)C4)cc3Cl)c2)ccn1 [Compound 96a]"
  Parameter: "IC50"
  Measured Value: 1.4
- Compound: "CC(C)(C)c1cc(-c2cc(-c3ccc(C(=O)N4CCC[C@@H](O)C4)cc3Cl)cs2)ccn1 [Compound 48a]"
  Parameter: "IC50"
  Measured Value: 0.31
- Compound: "CC(C)(C)c1cc(-c2csc(-c3ccc(C(=O)N4CCc5nc[nH]c5C4)cc3Cl)c2)ccn1 [Compound 92]"
  Parameter: "IC50"
  Measured Value: 0.74

For each listed entry, give its IC50.
1. CC(C)(C)c1cc(-c2cc(-c3ccc(C(=O)N4CCC(O)C4)cc3Cl)cs2)ccn1 (stereo not drawn) [Compound 82]
2. CCN(CCNC(C)=O)C(=O)c1ccc(-c2csc(-c3ccnc(C(C)(C)C)c3)c2)c(Cl)c1 [Compound 47]

0.5
0.33

Go through the items and report each one's IC50.
1. CC(C)(C)OC(=O)NC1CCN(C(=O)c2ccc(-c3csc(-c4ccnc(C(C)(C)C)c4)c3)c(Cl)c2)CC1 [Compound 37]
2. CC(C)(C)c1cc(-c2cc(-c3ccc(C(=O)N4CCCC(NS(C)(=O)=O)C4)cc3Cl)cs2)ccn1 (racemic) [Compound 31]
3. NC1CCCN(C(=O)c2ccc(-c3csc(-c4ccnc(N5CCOCC5)c4)c3)c(Cl)c2)C1 (stereo not drawn) [Compound 65]
4. CC(C)(C)c1cc(-c2cc(-c3ccc(C(=O)N4CCC[C@@H](N)C4)cc3Cl)cs2)ccn1 [Compound 21a]
5. CC(C)(C)c1cc(-c2cc(-c3ccc(C(=O)NCC(=O)N4CCOCC4)cc3Cl)cs2)ccn1 [Compound 61]

1. 0.91
2. 0.99
3. 2.4
4. 0.71
5. 1.5

---

Tested on: SREBP-2 transcriptional activity (SREBP2 cleavage) in HepG2_LSSprom cells
Experiment: Luciferase reporter driven by a SREBP-2 specific promoter in HepG2_LSSprom cells
Assay type: cell-based
Conditions: 24 h, 24 h treatment, HepG2_LSSprom cells; read-out: SREBP2 Cleavage (IC50 μM) 24 h
For each entry below, report its IC50 value.
Give bare numbers, in µM.

Some molecules with recorded IC50:
- Molecule: "Cc1sc(-c2ccc(C(=O)N3CCNC(=O)C3)cc2Cl)cc1-c1ccnc(C(C)(C)C)c1"
  Measured Value: 2.3
- Molecule: "CC(C)CCn1nccc1-c1cc(-c2ccc(C(=O)N3CCC(F)(F)CC3)cc2Cl)cs1"
  Measured Value: 0.69
- Molecule: "CC(C)(C)c1cc(-c2cc(-c3ccc(C(=O)N4CCC(O)CC4)cc3Cl)cs2)ccn1"
  Measured Value: 0.55
- Molecule: "CC(C)CCn1nccc1-c1csc(-c2ccc(C(=O)N3CCCC(O)C3)cc2Cl)c1 (stereo not drawn)"
  Measured Value: 0.13
- Molecule: "CC(C)(C)OC(=O)N[C@@H]1CCCN(C(=O)c2ccc(-c3cc(-c4ccnc(C(C)(C)C)c4)cs3)c(Cl)c2)C1"
  Measured Value: 0.015

Parameters: items (list). Returns: IC50 for each item.
1. CC(C)(C)OC(=O)NC1CCCN(C(=O)c2ccc(-c3csc(-c4ccnc(C(C)(C)C)c4)c3)c(Cl)c2)C1 (racemic)
2. CC(C)(C)c1cc(-c2cc(-c3ccc(C(=O)N4CCCCC4)cc3Cl)cs2)ccn1
3. CC(C)(C)c1cc(-c2cc(-c3ccc(C(=O)N4CCCC5(CCNC5=O)C4)cc3Cl)cs2)ccn1 (stereo not drawn)
4. CC(C)(C)c1cc(-c2cc(-c3ccc(C(=O)N4CCCC(NC(=O)NC5CC5)C4)cc3Cl)cs2)ccn1 (stereo not drawn)
5. CC(C)(C)c1cc(-c2csc(-c3ccc(C(=O)N4CCC[C@](C)(O)C4)cc3Cl)c2)ccn1 [Compound 101b]
6. CC(C)(C)c1cc(-c2csc(-c3ccc(C(=O)N4CCC[C@@H](N)C4)cc3Cl)c2)ccn1 [Compound 74a]
7. CC(C)(C)c1cc(-c2csc(-c3ccc(C(=O)N4CCC[C@@H](O)C4)cc3Cl)c2)ccn1 [Compound 89a]

1: 0.25; 2: 0.3; 3: 0.47; 4: 1; 5: 0.025; 6: 0.74; 7: 0.03
